Recorded values, source ChEMBL document CHEMBL4002588.

In this section we review reported pIC50 values for a set of compounds.
target_or_test_system: Cholinesterase (Homo sapiens)
Sequence (P06276 whole entry): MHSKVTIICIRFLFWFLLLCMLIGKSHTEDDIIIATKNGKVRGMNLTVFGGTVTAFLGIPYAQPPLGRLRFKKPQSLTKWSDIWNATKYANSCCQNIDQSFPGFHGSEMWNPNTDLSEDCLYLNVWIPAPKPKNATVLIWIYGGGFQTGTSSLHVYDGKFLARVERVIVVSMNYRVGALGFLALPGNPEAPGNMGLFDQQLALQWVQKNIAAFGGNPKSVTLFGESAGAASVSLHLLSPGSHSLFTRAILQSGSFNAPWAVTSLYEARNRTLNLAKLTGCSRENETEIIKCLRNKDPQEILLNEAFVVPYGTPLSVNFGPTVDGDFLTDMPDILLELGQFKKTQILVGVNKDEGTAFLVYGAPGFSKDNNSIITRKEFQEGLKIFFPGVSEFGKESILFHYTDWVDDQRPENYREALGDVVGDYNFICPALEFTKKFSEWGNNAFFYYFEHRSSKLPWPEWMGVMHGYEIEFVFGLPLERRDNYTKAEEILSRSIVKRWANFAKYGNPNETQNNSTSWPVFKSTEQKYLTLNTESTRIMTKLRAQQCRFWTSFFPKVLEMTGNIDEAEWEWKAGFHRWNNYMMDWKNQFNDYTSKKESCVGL
// pIC50 here means minus log10 of the molar concentration (mol/L)

Record excerpt, results attached:
CNc1nc(NCc2ccccc2)c2ccccc2n1 ... 4.73
CC(C)Nc1nc(NCCc2ccccc2)c2ccccc2n1 ... 5.80
CCCNc1nc(NCc2ccc(OC)c(OC)c2)c2ccccc2n1 ... 4.52
c1ccc(CNc2nc(NC3CC3)nc3ccccc23)cc1 ... 4.66
CNc1nc(NCCc2ccccc2)c2ccccc2n1 ... 5.30
CCCNc1nc(NCc2ccccc2)c2ccccc2n1 ... 4.84
CCCNc1nc(NCCc2ccccc2)c2ccccc2n1 ... 5.30
CCNc1nc(NCc2ccc(OC)c(OC)c2)c2ccccc2n1 ... 4.60
COc1ccc(CCNc2nc(NC3CC3)nc3ccccc23)cc1OC ... 5.25
c1ccc(CCNc2nc(NC3CC3)nc3ccccc23)cc1 ... 4.94

Q: Which pIC50 value belongs to CC(C)Nc1nc(NCc2ccccc2)c2ccccc2n1 ?
Result: 4.93

Q: Follow-up entry: CCCNc1nc(NCCc2ccc(OC)c(OC)c2)c2ccccc2n1
Result: 4.60

Q: Follow-up entry: COc1ccc(CNc2nc(NC3CC3)nc3ccccc23)cc1OC
Result: 4.53

Q: Follow-up entry: CNc1nc(NCCc2ccc(OC)c(OC)c2)c2ccccc2n1
Result: 5.35

Q: Follow-up entry: CCNc1nc(NCCc2ccc(OC)c(OC)c2)c2ccccc2n1
Result: 4.85

Q: Follow-up entry: CCNc1nc(NCc2ccccc2)c2ccccc2n1
Result: 4.82

Q: Follow-up entry: NC(=O)Cc1nc(NCCc2ccccc2)c2ccccc2n1
Result: 5.46
